Target: BRD9 bromodomain (Homo sapiens (Human), UniProt Q9H8M2)
Sequence (Q9H8M2 133-239): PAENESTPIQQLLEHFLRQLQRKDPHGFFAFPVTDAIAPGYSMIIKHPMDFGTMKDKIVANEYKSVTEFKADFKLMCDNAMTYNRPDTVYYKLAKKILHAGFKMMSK
Assay: BRD9 bromodomain TR-FRET competition binding assay
Conditions: 3 nM Flag-BRD9, 3.75 nM biotinylated ligand, 90 minutes at room temperature
OBSERVATION_TYPE: IC50

Worked examples follow.
COMPOUND	TEST_SYSTEM	IC50
COc1cc(-c2cn(C)c(=O)c3cnccc23)cc(OC)c1CN(C)C(=O)CCCCOc1cccc2c1C(=O)N(C1CCC(=O)NC1=O)C2=O (centres unmarked)	BRD9 bromodomain (Homo sapiens (Human), UniProt Q9H8M2)	< 10 nM
COc1cc(-c2cn(C)c(=O)c3cnccc23)cc(OC)c1CN(C)CCCCCCCC(=O)N[C@H](C(=O)N1C[C@H](O)C[C@H]1C(=O)NCc1ccc(-c2scnc2C)cc1)C(C)(C)C	BRD9 bromodomain (Homo sapiens (Human), UniProt Q9H8M2)	10 to 100 nM
COc1cc(-c2cn(C)c(=O)c3cnccc23)cc(OC)c1CN1CC(C(=O)O)C1	BRD9 bromodomain (Homo sapiens (Human), UniProt Q9H8M2)	10 to 100 nM
CSc1cc(-c2cn(C)c(=O)c3cnccc23)ccc1CN(C)C	BRD9 bromodomain (Homo sapiens (Human), UniProt Q9H8M2)	10 to 100 nM
COc1cc(-c2cn(C)c(=O)c3ccc(-c4nc5cnccc5[nH]4)cc23)cc(OC)c1CN(C)C	BRD9 bromodomain (Homo sapiens (Human), UniProt Q9H8M2)	10 to 100 nM
COc1cc(-c2cn(C)c(=O)c3cnccc23)cc(OC)c1CN(C)CCOCCOCC(=O)N[C@H](C(=O)N1C[C@H](O)C[C@H]1C(=O)NCc1ccc(-c2scnc2C)cc1)C(C)(C)C	BRD9 bromodomain (Homo sapiens (Human), UniProt Q9H8M2)	10 to 100 nM
COc1cc(-c2cn(C)c(=O)c3cnccc23)cc(OC)c1CN(C)C(=O)CCCOc1cccc2c1C(=O)N(C1CCC(=O)NC1=O)C2=O (centres unmarked)	BRD9 bromodomain (Homo sapiens (Human), UniProt Q9H8M2)	< 10 nM
CCC(=O)Nc1cc(-c2cc(OC)c(CN(C)C)c(OC)c2)cn(C)c1=O	BRD9 bromodomain (Homo sapiens (Human), UniProt Q9H8M2)	100 to 1000 nM

Problem: Specify IC50 for COc1cc(-c2cn(C)c(=O)c3cnccc23)cc(OC)c1CN(C)CC(=O)NCCCCCCCCNc1cccc2c1C(=O)N(C1CCC(=O)NC1=O)C2=O (centres unmarked) [Compound D2, formic acid] and stop.
Solution: 10 to 100 nM

Problem: Specify IC50 for CNC(=O)c1ccc2c(=O)n(C)cc(-c3cc(OC)c(CN(C)C)c(OC)c3)c2c1 and stop.
Solution: 10 to 100 nM

Problem: Specify IC50 for COc1cc(-c2cn(C)c(=O)c3cnccc23)cc(OC)c1CN1CC(C(=O)NCCCCCCCCNc2ccccc2)C1 and stop.
Solution: < 10 nM

Problem: Specify IC50 for CNC(=O)C1CN(Cc2c(OC)cc(-c3cn(C)c(=O)c4cnccc34)cc2OC)C1 and stop.
Solution: < 10 nM

Problem: Specify IC50 for CCC(=O)Nc1c(C)c(-c2cc(OC)c(CN(C)C)c(OC)c2)cn(C)c1=O and stop.
Solution: > 1000 nM

Problem: Specify IC50 for CC(C)n1cc(C(=O)NCc2ccccc2)c2cn[nH]c2c1=O and stop.
Solution: > 1000 nM

----------
Molecular target: BRD9 bromodomain (Homo sapiens (Human), UniProt Q9H8M2)
Experiment: BRD9 bromodomain TR-FRET competition binding assay
Conditions: 3 nM Flag-BRD9, 3.75 nM biotinylated ligand, 90 minutes at room temperature
Collected IC50 values appear next to each entry.

>>> print(df.to_string())
                                   compound  value_measured
0  COc1cc(-c2cn(C)c(=O)c3cnccc23)cc(F)c1CN(C)C  0.01 to 0.1 µM

Problem: Retrieve IC50 on BRD9 bromodomain (Homo sapiens (Human), UniProt Q9H8M2); query COc1cc(-c2cc(NC(=O)N(C)C)c3nnc(C)n3c2)cc(OC)c1CN(C)C
Solution: > 1 µM

Problem: Retrieve IC50 on BRD9 bromodomain (Homo sapiens (Human), UniProt Q9H8M2); query COc1cc(-c2cn(C)c(=O)c3cnccc23)cc(OCC(=O)NCCCCCCCCNc2cccc3c2C(=O)N(C2CCC(=O)NC2=O)C3=O)c1CN(C)C (centres unmarked)
Solution: 0.01 to 0.1 µM

----------
Collected pIC50 values appear next to each entry.
Target: BRD9 bromodomain (Homo sapiens (Human), UniProt Q9H8M2)
Experiment: BRD9 bromodomain TR-FRET competition binding assay
Conditions: 3 nM Flag-BRD9, 3.75 nM biotinylated ligand, 90 minutes at room temperature
pIC50: −log10 of the molar value.

Problem: Specify pIC50 for COc1cc(-c2cn(C)c(=O)c3cnccc23)cc(OC)c1CN(C)S(C)(=O)=O and stop.
Solution: > 8.00

Problem: Specify pIC50 for COc1cc(-c2cn(C)c(=O)c3cc(-c4nc5ccncc5[nH]4)ccc23)cc(OC)c1CN(C)C and stop.
Solution: 7.00 to 8.00

Problem: Specify pIC50 for COc1cc(NCC(=O)NCCCCCCCCNc2cccc3c2C(=O)N(C2CCC(=O)NC2=O)C3=O)cc(-c2cn(C)c(=O)c3cnccc23)c1 (centres unmarked) and stop.
Solution: 7.00 to 8.00

Problem: Specify pIC50 for COc1cc(-c2cn(C)c(=O)c3cnccc23)cc(OC)c1CN(C)Cc1cccc2c1C(=O)N(C1CCC(=O)NC1=O)C2=O (centres unmarked) and stop.
Solution: 7.00 to 8.00

Problem: Specify pIC50 for Cn1cc(C(=O)Nc2ccccc2)c2cn[nH]c2c1=O and stop.
Solution: < 6.00

Problem: Specify pIC50 for C/C=C/Cn1cc(-c2ccc(CNC)c(C#N)c2)c2cc(C)[nH]c2c1=O and stop.
Solution: 7.00 to 8.00

----------
Molecular target: BRD9 bromodomain (Homo sapiens (Human), UniProt Q9H8M2)
Assay: BRD9 bromodomain TR-FRET competition binding assay
Details: 3 nM Flag-BRD9, 3.75 nM biotinylated ligand, 90 minutes at room temperature
pIC50: −log10 of the molar value.
OBSERVATION_TYPE: pIC50

Worked examples follow.
MOLECULE	pIC50
CN(C)Cc1ccc(-c2cn(C)c(=O)c3cnccc23)cc1S(C)(=O)=O [Compound B37]	6.00 to 7.00
COc1cc(-c2cn(C)c(=O)c3cnccc23)cc(OC)c1CN(C)S(=O)(=O)CC(C)C [Compound B40]	> 8.00
CNC(=O)[C@@H]1CCN1Cc1c(OC)cc(-c2cn(C)c(=O)c3cnccc23)cc1OC [Compound B56]	7.00 to 8.00
Cn1cc(C(=O)NCc2ccccc2)c2cn[nH]c2c1=O [Compound B5]	< 6.00

Problem: Specify pIC50 for CCOC(=O)Nc1cc(-c2cc(OC)c(CN(C)C)c(OC)c2)cn(C)c1=O [Compound B32] and stop.
Solution: 7.00 to 8.00

Problem: Specify pIC50 for CC(=O)c1cc(-c2cccc3nccn23)c2cc(N3CCNCC3)ccn12 [Compound B19] and stop.
Solution: 6.00 to 7.00

Problem: Specify pIC50 for CNCc1ccc(-c2cn(C)c(=O)c3[nH]ccc23)cc1 [Compound B14] and stop.
Solution: 7.00 to 8.00

Problem: Specify pIC50 for COc1cc(-c2cn(C)c(=O)c3cnncc23)cc(OC)c1CN(C)C [Compound B52] and stop.
Solution: 7.00 to 8.00

Problem: Specify pIC50 for COc1cc(-c2cn(C)c(=O)c3cnccc23)cc(OC)c1CN(C)S(=O)(=O)C1CC1 [Compound B39] and stop.
Solution: > 8.00

Problem: Specify pIC50 for COc1cc(-c2cn(C)c(=O)c3cnccc23)cc(OC)c1CN(C)CC(=O)N(C)CCOCCOCCNc1ccc2c(c1)C(=O)N(C1CCC(=O)NC1=O)C2=O (centres unmarked) [Compound D16] and stop.
Solution: 7.00 to 8.00

Problem: Specify pIC50 for CCNC(=O)c1cn(C)c(=O)c2[nH]ncc12 [Compound B6] and stop.
Solution: < 6.00

----------
Molecular target: BRD9 bromodomain (Homo sapiens (Human))
Assay: BRD9 bromodomain TR-FRET competition binding assay
Settings: 3 nM Flag-BRD9, 3.75 nM biotinylated ligand, 90 minutes at room temperature
Collected IC50 values appear next to each entry.

Worked examples follow.
In [3]: df
Out[3]:
                                   molecule  observation_type  value_measured
0  COc1cc(-c2cn(C)c(=O)c3cnccc23)cc(OC)c1CN(C)C(=O)CCOc1cccc2c1C(=O)N(C1CCC(=O)NC1=O)C2=O (stereo not drawn)              IC50         < 10 nM
1  COc1cc(-c2cn(C)c(=O)c3[nH]ncc23)cc(OC)c1CN(C)C              IC50         < 10 nM
2    CCCn1cc(C(=O)NCc2ccccc2)c2cn[nH]c2c1=O              IC50       > 1000 nM
3  COc1c(CN(C)C)ccc(-c2cn(C)c(=O)c3cnccc23)c1F              IC50  100 to 1000 nM
4        CCN(C)C(=O)c1cn(C)c(=O)c2[nH]ncc12              IC50       > 1000 nM
5  CNCc1c(OC)cc(-c2cn(C3CC3)c(=O)c3cnccc23)cc1OC              IC50    10 to 100 nM
6  CNC(=O)c1ccc2c(-c3cc(OC)c(CN(C)C)c(OC)c3)cn(C)c(=O)c2c1              IC50    10 to 100 nM
7  COc1cc(-c2cn(C)c(=O)c3nccnc23)cc(OC)c1CN(C)C              IC50  100 to 1000 nM
8  COc1cc(-c2cn(C)c(=O)c3cnccc23)cc(OC)c1CN(C)CC(=O)N(C)CCOCCOCCNc1cccc2c1C(=O)N(C1CCC(=O)NC1=O)C2=O (stereo not drawn)              IC50    10 to 100 nM
9  COc1cc(-c2cn(C)c(=O)c3cnccc23)cc(OC)c1CN(C)CC(=O)N(C)CCCCCNc1cccc2c1C(=O)N(C1CCC(=O)NC1=O)C2=O (stereo not drawn)              IC50    10 to 100 nM

Problem: Retrieve IC50 on BRD9 bromodomain (Homo sapiens (Human)); query COc1cc(-c2cn(C3CC3)c(=O)c3cnccc23)cc(OC)c1CN(C)C
Solution: 10 to 100 nM

Problem: Retrieve IC50 on BRD9 bromodomain (Homo sapiens (Human)); query COc1cc(-c2cn(C)c(=O)c3cnccc23)cc(OC)c1CN1CC[C@H]1C(=O)O
Solution: 10 to 100 nM
